Target: T1, ZFP SBS#431 (synthetic)
T1 chain: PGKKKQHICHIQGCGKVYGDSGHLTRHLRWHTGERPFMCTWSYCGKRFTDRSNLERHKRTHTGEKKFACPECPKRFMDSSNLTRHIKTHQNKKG
Test: EMSA
Conditions: tags: MBP fusion
Readout kind: Kd (nM)
Value expressed in nM; do not type the unit.

Req: Which Kd value belongs to GACGACGGC (dsDNA) DNA 1: GACGACGGC DNA 2: GCCGTCGTC ?
Resp: 100
